subject-of-test: KPC-2 (Klebsiella pneumoniae)
Construct: purchased GenScript Biotech Co., Ltd
Sequence (Q9F663 25-293 limits assumed): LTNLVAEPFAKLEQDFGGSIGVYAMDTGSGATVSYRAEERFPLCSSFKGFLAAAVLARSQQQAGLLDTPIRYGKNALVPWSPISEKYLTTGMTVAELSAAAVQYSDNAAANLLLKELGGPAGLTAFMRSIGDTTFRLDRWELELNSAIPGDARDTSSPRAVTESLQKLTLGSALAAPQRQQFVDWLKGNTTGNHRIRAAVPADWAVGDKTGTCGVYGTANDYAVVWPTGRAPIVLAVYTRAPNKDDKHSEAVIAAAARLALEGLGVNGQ
assay-overview: Enzyme activity test (FC5 fluorescent substrate), KPC-2
Assay type: biochemical
conditions-used: enzyme 45 pM, substrate FC5 25 μM
measured-metric: pIC50
Please keep in mind that pIC50 is minus log10 of the molar concentration; only the number is needed.

O=C(O)c1c(S[C@H]2CCOC2)ccc2c1OB(O)[C@@H]1C[C@H]21 :: 8.82

What does the record list as pIC50 for NCCNC1CCC(CC(=O)N[C@H]2Cc3cccc(C(=O)O)c3OB2O)CC1 (some centres unmarked) [VNRX-5133, reference compound] ?
7.19

What value of pIC50 has been recorded for this entry: "CSc1ccc2c(c1C(=O)O)OB(O)[C@@H]1C[C@H]21"
8.92

Entry under review: "CC(C)Sc1ccc2c(c1C(=O)O)OB(O)[C@@H]1C[C@H]21" . Reported pIC50?
8.48

Requested field: pIC50. Item: "CN1CC(CCSc2ccc3c(c2C(=O)O)OB(O)[C@@H]2C[C@H]32)C1"
8.47

These measurements were taken from patent US20250223303A1.
